Values were extracted from patent US8691815B2.

tested.system: human vasopressin V1b receptor (Homo sapiens, UniProt P47901)
Sequence (P47901 whole entry): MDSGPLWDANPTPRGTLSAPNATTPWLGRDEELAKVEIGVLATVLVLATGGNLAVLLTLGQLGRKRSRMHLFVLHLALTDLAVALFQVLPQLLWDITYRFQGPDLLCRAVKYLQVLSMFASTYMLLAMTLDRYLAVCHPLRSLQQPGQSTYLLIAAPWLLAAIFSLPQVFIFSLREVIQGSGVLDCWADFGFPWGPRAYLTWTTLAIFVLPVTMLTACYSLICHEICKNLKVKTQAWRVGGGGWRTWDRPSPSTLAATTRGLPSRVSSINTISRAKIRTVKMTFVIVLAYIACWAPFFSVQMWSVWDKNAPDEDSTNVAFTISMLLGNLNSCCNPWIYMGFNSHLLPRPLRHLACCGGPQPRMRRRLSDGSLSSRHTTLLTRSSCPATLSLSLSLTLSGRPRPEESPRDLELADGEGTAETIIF
pKi: −log10 of the molar value. Counter-ions that a name gives are not always drawn.
Measured pKi accompanies every entry in the list below.

{"columns": ["compound", "pKi"],
 "data": [
  ["COc1ccc(S(=O)(=O)N2C(=O)C(c3ccc(CN4CCCC4)cc3OC)(N3CCC[C@H]3C(=O)N(C)C)c3ccccc32)cc1 (stereo partly drawn) [Example 91, trifluoroacetic acid salt]", "8.00 to 9.00"],
  ["COCCN(C)Cc1ccc(C2(N3CCC[C@H]3C(=O)N(C)C)C(=O)N(S(=O)(=O)c3ccc(OC)cc3OC)c3ccc(Cl)cc32)c(OC)c1 (stereo partly drawn)", "8.00 to 9.00"],
  ["COc1ccc(S(=O)(=O)N2C(=O)C(c3ccc(CN4CCN(C)CC4)cc3OC)(N3CCC[C@H]3C(=O)N(C)C)c3cc(Cl)ccc32)c(OC)c1 (stereo partly drawn)", "8.00 to 9.00"]
]}
